assayTarget: Histone acetyltransferase RTT109 (Saccharomyces cerevisiae (strain ATCC 204508 / S288c) (Baker's yeast)) (UniProt Q07794)
Sequence (Q07794 whole entry): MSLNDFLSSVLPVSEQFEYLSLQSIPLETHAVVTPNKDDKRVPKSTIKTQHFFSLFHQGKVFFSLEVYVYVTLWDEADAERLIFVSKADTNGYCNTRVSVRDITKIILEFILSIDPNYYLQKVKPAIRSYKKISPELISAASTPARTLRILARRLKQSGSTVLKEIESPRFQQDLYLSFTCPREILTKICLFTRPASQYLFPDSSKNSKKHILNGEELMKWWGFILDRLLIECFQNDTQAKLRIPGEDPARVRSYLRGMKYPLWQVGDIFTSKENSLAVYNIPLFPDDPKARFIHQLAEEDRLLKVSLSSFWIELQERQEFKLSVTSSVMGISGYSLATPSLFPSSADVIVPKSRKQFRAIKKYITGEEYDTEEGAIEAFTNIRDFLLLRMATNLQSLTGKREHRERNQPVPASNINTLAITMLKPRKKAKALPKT
testName: Inhibition of Vps75-stimulated recombinant Saccharomyces cerevisiae histone acetyltransferase Rtt109 assessed as H3K56 acetylated product at […] after 45 mins by Slot bolt inhibiton assay
Calls of active or inactive are those of the source. The rule behind the calls is not given here.
Choose one outcome from this list and give only that: active, inactive

Illustrative cases are given below, each with its answer.
compound="O=C1CC(Sc2nnc(-c3ccccc3O)o2)C(=O)N1c1ccccc1 (stereo not given)" assignedlabel=active
compound="O=C1CC(Sc2nc[nH]n2)C(=O)N1c1ccccc1 (stereo not given)" assignedlabel=active
compound="COc1ccc(-c2nnc(SC3CC(=O)N(c4ccc(Cl)cc4)C3=O)[nH]2)cc1 (stereo not given)" assignedlabel=active
compound=CN(CCO)c1cc(Sc2nnc(-c3ccccc3)o2)c2nonc2c1[N+](=O)[O-] assignedlabel=active
compound=O=C(O)c1ccc(-n2nnnc2SC2=CS(=O)(=O)c3ccccc32)cc1 assignedlabel=active
compound=CC(C)c1ccc(S(=O)(=O)Nc2ccc(O)c(Sc3nc[nH]n3)c2)cc1 assignedlabel=inactive

[ask] Lab log entry: `COc1ccc(-c2nnc(Sc3ccc([N+](=O)[O-])c4nonc34)o2)cc1` — outcome as called in the assay?
[reply] active

[ask] Please share the test call associated with `Cc1occc1-c1nnc(SC2=CS(=O)(=O)c3ccccc32)o1` .
[reply] active

[ask] Field: outcome | Entry: `O=[N+]([O-])c1cc(Br)c2nsnc2c1Sc1nnnn1C1CCCCC1`
[reply] active

[ask] Kindly provide the recorded test outcome for the following compound: `O=C(O)CSc1cc(Cl)c2nonc2c1[N+](=O)[O-]`
[reply] active

* * *

assayTarget: Histone acetyltransferase RTT109 (Saccharomyces cerevisiae (strain ATCC 204508 / S288c) (Baker's yeast)) (UniProt Q07794)
testName: Inhibition of Vps75-stimulated recombinant Saccharomyces cerevisiae histone acetyltransferase Rtt109 assessed as H3K27 acetylated product at […] after 45 mins by Slot bolt inhibiton assay
The source made the active and inactive calls. How the calls were made is not given here.
Mark one answer only. Choices: active, inactive

compound="COc1ccc(N2C(=O)CC(Sc3nnc(-c4ccccc4)o3)C2=O)cc1 (stereo not drawn)" assignedlabel=active

[ask] State the result this test recorded for `O=[N+]([O-])c1ccc(Sc2nnnn2-c2ccccc2)c2nonc12` .
[reply] active

[ask] Would you mind telling me which call this test gave `O=S(=O)(Nc1cc(Cl)c(O)c2ccccc12)c1ccc(Br)cc1` ?
[reply] active

[ask] In this assay, the call recorded for O=C1CC(Sc2nc[nH]n2)C(=O)N1c1ccccc1 (stereo not drawn) was what?
[reply] active

[ask] Field: outcome | Entry: `O=S(=O)(Nc1cc(Sc2nc[nH]n2)c(O)c2ccccc12)c1ccc(Br)cc1`
[reply] active

[ask] GET /call?item= `Cc1ccc(S(=O)(=O)C[n+]2sc(N(c3ccccc3)c3ccccc3)nc2-c2ccccc2)cc1` returns the recorded outcome of this test.
[reply] inactive

[ask] Please indicate how the test categorized `O=S(=O)(Nc1cc(SCc2ccco2)c(O)c2ccccc12)c1ccccc1` .
[reply] active

[ask] Can you look up the reported call for Cc1ccc(N2C(=O)CC(Sc3nncn3-c3ccccc3)C2=O)cc1 (stereo not drawn) for me?
[reply] active

* * *

assayTarget: Histone acetyltransferase RTT109 (Saccharomyces cerevisiae (strain ATCC 204508 / S288c) (Baker's yeast))
testName: Inhibition of Vps75-stimulated recombinant Saccharomyces cerevisiae histone acetyltransferase Rtt109 assessed as H3K27 acetylated product at […] after 45 mins by Slot bolt inhibiton assay
Calls of active or inactive are those of the source. The rule behind the calls is not given here.
valueType: Activity

Here is how some compounds turned out for Activity.
compound="Cc1ccc(-c2nnc(SC3CC(=O)N(c4ccc5ccccc5c4)C3=O)[nH]2)cc1 (stereo unspecified)" result=Active
compound=Cc1ccc(-c2nc(Nc3ccccc3)s[n+]2CS(=O)(=O)c2ccccc2)cc1.[Cl-] result=Active
compound=CCOc1ccc(Nc2nc(-c3ccc(C)cc3)[n+](Cc3ccc([N+](=O)[O-])cc3)s2)cc1.[Br-] result=Active
compound=CSc1nsc(SC2=CS(=O)(=O)c3ccccc32)n1 result=Active
compound=O=C1C=CC(=O)N1c1ccccc1 result=Active
compound=O=[N+]([O-])c1cccc(S(=O)(=O)Nc2cc(SCc3ccccc3)c(O)c3ccccc23)c1 result=Active

The compound listed as `O=S(=O)(Nc1cc(Sc2nc[nH]n2)c(O)c2ccccc12)c1ccccc1` shows Activity equal to Active

Lab note: `O=[N+]([O-])c1c(Sc2ncnc3[nH]cnc23)cc(Cl)c2nsnc12` gave Activity of Active

Kindly note the recorded Activity for `O=C1C=CC(=O)N1c1ccc2ccccc2c1` , which is Active

// `O=S(=O)(Nc1cc(Sc2nc[nH]n2)c(O)c2ccccc12)c1ccc(Cl)cc1` : Activity value = Active

# Activity of `O=S1(=O)C=C(Sc2nnc(-c3ccccc3)o2)c2ccccc21` = Active
